System: IGROV1 ovarian
Experiment: NCI-60 one-dose screen, 48 h (100 = growth as untreated, 0 = no growth, -100 = all killed)
Settings: 10 µM unless noted
This is part of a sample that, as a whole, favours compounds with a hit. Of some 83,000 tested, about 20% had one in any assay.
Rule: growth of 40% or more gives 1.0; anything lower gives 0.0.

>  <compound_structure_string>
O=C(O)c1cccc2c1Cc1cc([N+](=O)[O-])ccc1-2

>  <answer_label>
1.0

$$$$
>  <compound_structure_string>
C=C1C(=O)O[C@H]2[C@H]1CC/C(COC(=O)NCc1cc3ccccc3[nH]1)=C\CC[C@@]1(C)O[C@@H]21

>  <answer_label>
0.0

$$$$
>  <compound_structure_string>
O=S(=O)(NCCNc1cc(-c2cn(-c3ccccc3)nc2-c2cccc(O)c2)ccn1)c1cccc(F)c1

>  <answer_label>
1.0

$$$$
>  <compound_structure_string>
COc1ccc2c(c1)c(-c1nc(-c3c[nH]c4ncccc34)cs1)cn2CCNC(=O)OC(C)(C)C

>  <answer_label>
1.0

$$$$
>  <compound_structure_string>
Nc1c(C(=O)Nc2cccc3ccccc23)sc2nc3c(cc12)CCCC3

>  <answer_label>
1.0

$$$$

====

System: SK-MEL-28 melanoma
Test: NCI-60 one-dose screen, 48 h
Conditions: 10 µM unless noted
Protocol: Growth inhibition of the SK-MEL-28 human tumor cell line is measured as a screen for anti-cancer activity. Cells are grown in 96 well plates and exposed to the test compound for 48 hours. Compounds are tested at a single concentration, which is 10^-5 M for most compounds. The reported endpoint is percent growth (GI% or GIPRCNT), where numbers from 0 - 100% represent growth inhibition, and numbers from -100% - 0 represent cell death. For example, a value of 40 represents 60% growth inhibition. […]
Compounds without any hit were thinned out: in the full panel of roughly 83,000, 20% have a hit. Active and inactive are the calls of the source. The calls were made as follows: active = growth percent below 10; inactive = the rest.
Outcome codes: True (active), False (inactive)

>  <compound>
C=C1C(=O)O[C@H]2[C@H]1CC/C(COC(=O)NCCc1c[nH]c3ccccc13)=C\CC[C@@]1(C)O[C@@H]21

>  <system>
SK-MEL-28 melanoma

>  <answer_label>
True

$$$$
>  <compound>
CC(C)(C)CC(C)(C)c1ccc(OCCOCC[N+](C)(C)CC(=O)[O-])cc1

>  <system>
SK-MEL-28 melanoma

>  <answer_label>
False

$$$$
>  <compound>
O=C1CCC/C=C\C[C@H]2C=C(Cl)C(=O)/C2=C/C[C@H](CCCCC(F)(F)F)OC(=O)CCC/C=C\C[C@H]2C=C(Cl)C(=O)/C2=C/C[C@H](CCCCC(F)(F)F)O1

>  <system>
SK-MEL-28 melanoma

>  <answer_label>
True

$$$$
>  <compound>
CCCCC[C@H]1CC=C2C(=O)C=C[C@@H]2CC=CCCCC(=O)O[C@@H](CCCCC)CC=C2C(=O)C=C[C@@H]2CC=CCCCC(=O)O[C@@H](CCCCC)CC=C2C(=O)C=C[C@@H]2CC=CCCCC(=O)O1

>  <system>
SK-MEL-28 melanoma

>  <answer_label>
True

$$$$
>  <compound>
CCN(CC)CCCCCNc1cc(OC(=O)c2ccccc2)cc2cccnc12

>  <system>
SK-MEL-28 melanoma

>  <answer_label>
False

$$$$
>  <compound>
Nc1c2c(nc3ccc(Cl)cc13)CC(c1ccc(O)cc1)CC2=O (stereo not drawn)

>  <system>
SK-MEL-28 melanoma

>  <answer_label>
False

$$$$
>  <compound>
C[N+](C)(CCCCCC[N+](C)(C)C1c2ccccc2-c2ccccc21)C1c2ccccc2-c2ccccc21

>  <system>
SK-MEL-28 melanoma

>  <answer_label>
False

$$$$
>  <compound>
COc1cnc2c(c1)C(=O)c1c-2n(CCCNC2=NCCS2)c(=O)c2cc([N+](=O)[O-])ccc12

>  <system>
SK-MEL-28 melanoma

>  <answer_label>
True

$$$$

====

System: HS 578T breast
Test: NCI-60 one-dose screen, 48 h
Conditions: 10 µM unless noted
Compounds without any hit were thinned out: in the full panel of roughly 83,000, 20% have a hit. Activity calls are given as the source filed them. How the source made its calls: active means growth percent below 10; inactive means the rest.
Outcome codes: active, inactive

>  <compound>
CC1(c2ccccc2)OC1C(=O)O (stereo unspecified)

>  <answer_label>
inactive

$$$$
>  <compound>
CC(C)=CCC[C@](C)(O)[C@H]1CC[C@]2(C)[C@@H]1CC[C@@H]1[C@@]3(C)C/C(=C/c4cccc([N+](=O)[O-])c4)C(=O)C(C)(C)[C@@H]3CC[C@]12C

>  <answer_label>
inactive

$$$$
>  <compound>
COC(=O)[C@]12CC[C@@H](C)[C@H](C)[C@@H]1C1=CC[C@@H]3[C@@]4(C)CC(=O)[C@H](OC(=O)c5ccco5)[C@@]5(C)COC(=C45)C[C@@]3(C)[C@]1(C)CC2

>  <answer_label>
inactive

$$$$
>  <compound>
CCN(CC)C(=O)CCCCCn1c2ccccc2c2c3c(c4c5ccccc5[nH]c4c21)C(=O)N(O)C3=O

>  <answer_label>
inactive

$$$$
>  <compound>
N#CC1=C(N)Oc2c(c(N)nn2-c2ccccc2)C1c1ccc(Cl)cc1 (stereo unspecified)

>  <answer_label>
inactive

$$$$
>  <compound>
C=C(C)[C@@H]1CC[C@]2(c3nnc(-c4ccncc4)o3)CC[C@]3(C)[C@H](CC[C@@H]4[C@@]5(C)CCC(=O)NC(C)(C)[C@@H]5CC[C@]43C)[C@@H]12

>  <answer_label>
inactive

$$$$
>  <compound>
C=C(C)[C@@H]1CC[C@]2(C(=O)N3CCN(CC)CC3)CC[C@]3(C)[C@H](CC[C@@H]4[C@@](C)(CCC(=O)N5CCN(CC)CC5)[C@H](C(=C)C)CC[C@]43C)[C@@H]12

>  <answer_label>
inactive

$$$$
>  <compound>
COc1ccc(-c2cc(-c3cccs3)n(N=O)c(=O)c2C#N)cc1

>  <answer_label>
inactive

$$$$
>  <compound>
Clc1cc(Cl)cc(Nc2ccc3c(OCCCN4CCOCC4)cccc3n2)c1

>  <answer_label>
inactive

$$$$
>  <compound>
CCCCC/C(=C\c1ccccc1)C1OC(C)C(C)O1 (stereo unspecified)

>  <answer_label>
inactive

$$$$
>  <compound>
C[C@]12CC[C@@H]3c4ccc(O)cc4CC[C@H]3[C@@H]1C[C@H](O)[C@@H]2O

>  <answer_label>
inactive

$$$$
>  <compound>
Cc1c(C)c2c(c(C)c1NC(=O)CCCCCCC(=O)O)CCC(C)(CCCC(C)CCCC(C)CCCC(C)C)O2 (stereo unspecified)

>  <answer_label>
inactive

$$$$
>  <compound>
Cc1csc(Nc2nc(-c3cccc(Br)c3)nc(C(Cl)(Cl)Cl)n2)n1

>  <answer_label>
inactive

$$$$
>  <compound>
CC1=CC(=O)N(c2cccc3c(N4C(=O)C=C(C)C4=O)cccc23)C1=O

>  <answer_label>
inactive

$$$$
>  <compound>
Cc1ccc(N(CC(=O)Nc2ccc(S(=O)(=O)NC3CCN(C)CC3)cc2)S(=O)(=O)c2ccc(Cl)cc2)cc1

>  <answer_label>
inactive

$$$$
>  <compound>
CCc1cccc(CC)c1NC(=O)c1sc2nc3c(cc2c1N)CCCC3

>  <answer_label>
inactive

$$$$
>  <compound>
CN(CSc1ccc(Cl)cc1)c1ccc(CSc2ccc(Cl)cc2)cc1

>  <answer_label>
inactive

$$$$
>  <compound>
COc1cnc2c(c1)C(=O)c1c-2n(CCCN2CCN(CCO)CC2)c(=O)c2cc([N+](=O)[O-])ccc12

>  <answer_label>
inactive

$$$$
>  <compound>
O=C1/C(=C\c2ccc(Br)o2)SC(=S)N1CCc1ccc(O)cc1

>  <answer_label>
inactive

$$$$
>  <compound>
Cc1ccnc2c(OCc3ccccc3)cccc12

>  <answer_label>
inactive

$$$$
>  <compound>
CC(=O)OC(C)COc1ccc(-c2ccccc2)cc1 (stereo unspecified)

>  <answer_label>
inactive

$$$$
>  <compound>
Cn1cc(-c2nc(-c3c[nH]c4ncccc34)cs2)c2cc(Cl)ccc21

>  <answer_label>
inactive

$$$$
>  <compound>
CNC(=O)c1cc(Oc2ccc3nc(NC(=O)Nc4ccc(Cl)cc4)sc3c2)ccn1

>  <answer_label>
inactive

$$$$
>  <compound>
S=c1[nH]nc2ccccn12

>  <answer_label>
inactive

$$$$
>  <compound>
O=[N+]([O-])c1ccc(N/N=C(\C(=N/Nc2ccc([N+](=O)[O-])cc2[N+](=O)[O-])c2ccccc2)c2ccccc2)c([N+](=O)[O-])c1

>  <answer_label>
inactive

$$$$
>  <compound>
CC(=O)O[C@@H]1CCN2C(=O)N(C)c3ccccc3[C@@H]2C1

>  <answer_label>
inactive

$$$$
>  <compound>
Cn1cc(-c2csc(-c3cn(C(=O)OC(C)(C)C)c4ccc(Br)cc34)n2)c2cccnc21

>  <answer_label>
inactive

$$$$
>  <compound>
COc1ccc(NC(=O)c2ccc3c(c2)nc(-c2cc4ccccc4[nH]c2=O)n3-c2cc(C(C)(C)C)[nH]n2)cc1

>  <answer_label>
inactive

$$$$
>  <compound>
Cn1cc(-c2csc(-c3cn(CCN)c4ccc(F)cc34)n2)c2cccnc21

>  <answer_label>
inactive

$$$$
>  <compound>
N#Cc1cnc2cc(OC[C@@H](O)CO)c(NC(=O)C3CCCC3)cc2c1Nc1ccc(OCc2cccc(F)c2)c(Cl)c1

>  <answer_label>
active

$$$$
>  <compound>
CCCCCCCN(CCCCCCC)C(=N)c1ccnc2ccccc12

>  <answer_label>
active

$$$$
>  <compound>
C[N+](C)(CCCCCC[N+](C)(C)C1c2ccccc2-c2ccccc21)C1c2ccccc2-c2ccccc21

>  <answer_label>
inactive

$$$$
>  <compound>
Cc1cc2nc3c4cc([N+](=O)[O-])cc([N+](=O)[O-])c4n(CCN(C)C)c3nc2cc1C

>  <answer_label>
inactive

$$$$
>  <compound>
CCN1CCN(C(=O)[C@@]2(C)CC[C@]3(C)CC[C@]4(C)C(=CC(=O)[C@@H]5[C@@]6(C)CC[C@H](OCCC#N)C(C)(C)[C@@H]6CC[C@]54C)[C@@H]3C2)CC1

>  <answer_label>
inactive

$$$$
>  <compound>
Cc1ccncc1C(=O)O

>  <answer_label>
inactive

$$$$
>  <compound>
COc1cccc2c1C(=O)c1c(O)c3c(c(O)c1C2=O)C[C@@](O)(C(=O)CO)C[C@@H]3OC1C[C@H](N)[C@H](O)[C@H](C)O1 (stereo partly specified)

>  <answer_label>
active

$$$$
